Tested System: RELARELA (p65 homodimer) (Homo sapiens, UniProt Q04206 1-307)
Sequence (Q04206 1-307): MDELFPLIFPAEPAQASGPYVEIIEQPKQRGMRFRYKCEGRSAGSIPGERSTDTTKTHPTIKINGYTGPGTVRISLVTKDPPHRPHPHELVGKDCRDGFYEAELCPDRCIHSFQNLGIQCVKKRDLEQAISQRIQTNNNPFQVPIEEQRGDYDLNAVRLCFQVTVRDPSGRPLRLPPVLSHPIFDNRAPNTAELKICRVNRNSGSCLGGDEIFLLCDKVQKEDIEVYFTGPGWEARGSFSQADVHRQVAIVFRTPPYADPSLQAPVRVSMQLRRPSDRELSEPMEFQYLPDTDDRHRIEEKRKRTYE
Assay Details: protein binding microarray; high values mean tight binding
Applied Conditions: dsDNA, one strand shown
// assign y if binding signal falls strictly below 0.005 z-score, else n (ties count as n)

A selection of reference data follows.
Macromolecule Sequence	Label
GGGTTACTCCC	n
CAAAAAGTCCC	n
CAGGGCCTCCC	y
CGAGGCTTCCT	y
GAAATTGCCCT	n
AGATAGTTCCC	n
GAGGGATTCCT	n
CGGGAGCTCCC	n
GAATGCCTCCT	y
CAGAACCTCCT	y

Consider the sequence GAAATAGTCCC . Is its binding signal strictly less than 0.005 z-score?
n

Does the reported binding signal of the following sequence sit strictly below 0.005 z-score? GGAGGCGCCCC
y

Say whether its binding signal is strictly beneath 0.005 z-score. Entry: GAGGAAATCCT
n

# check: binding signal < 0.005 z-score for GGGTTGACCCT
y

Is binding signal strictly under 0.005 z-score for the entry CAGAGCATCCC ?
y

Criterion: binding signal strictly below 0.005 z-score. Is it met by CAGTAGCTCCT ?
y

Could you please tell me whether binding signal recorded for GAATAGCTCCC is less than 0.005 z-score?
y

# TODO verify binding signal < 0.005 z-score strictly for this sequence: AAGGTAGCCCC
y

###

Tested System: C-Rel subunit;p50 subunit (Homo sapiens;Homo sapiens, UniProt Q04864;P19838 1-285;7-356)
Sequence (P19838 7-356, one chain of several): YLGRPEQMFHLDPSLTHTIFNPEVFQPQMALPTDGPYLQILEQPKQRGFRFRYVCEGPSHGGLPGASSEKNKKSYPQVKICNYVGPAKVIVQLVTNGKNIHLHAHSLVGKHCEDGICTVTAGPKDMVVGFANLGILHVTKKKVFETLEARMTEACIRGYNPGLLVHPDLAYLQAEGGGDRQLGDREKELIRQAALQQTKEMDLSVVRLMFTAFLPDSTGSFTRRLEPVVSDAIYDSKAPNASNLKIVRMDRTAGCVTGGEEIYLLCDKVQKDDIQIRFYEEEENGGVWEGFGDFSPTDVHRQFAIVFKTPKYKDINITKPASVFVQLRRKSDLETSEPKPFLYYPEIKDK
Assay Details: protein binding microarray; high values mean tight binding
Applied Conditions: dsDNA, one strand shown
Define the label as yes when binding signal is strictly less than -0.5 z-score and as no in all remaining cases.

See these solved cases before continuing.
Macromolecule Sequence	Label
GGATGCGTCCT	yes
CGAGGTGCCCT	yes
GGGGTGATCCC	no
GGGGACACCCC	no
AGGTATACCCT	no
CAGTGCATCCT	yes
GGGGATTCCCT	no
GAATGGATCCC	yes
CGAGTGGTCCC	yes
AAGTTTCTCCC	no

Would you kindly verify if binding signal of CAATGTCTCCC is strictly less than -0.5 z-score?
yes

Check if binding signal falls below -0.5 z-score for GGGATGGCCCC .
no

API: query returns whether the sequence falls strictly under -0.5 z-score in binding signal. Query: CAGGTGCTCCT
yes

In the record for AGGTACGCCCC , is binding signal less than -0.5 z-score?
no

Lab note: confirm whether the reported binding signal for this sequence is below -0.5 z-score, equality not counting. sequence: GAGTTGCCCCC
no

# TODO verify binding signal < -0.5 z-score strictly for this sequence: CAATATTTCCC
no

Say whether its binding signal is strictly beneath -0.5 z-score. Entry: GAGTTCTCCCC
no

Quick check: does CGGAAAACCCC have binding signal under -0.5 z-score?
no

In plain terms, does AGAAGCTCCCT come in under -0.5 z-score for binding signal?
yes

Is binding signal strictly under -0.5 z-score for the entry CAGGTTTCCCT ?
no

Consider GAGGGAGCCCT . Does its binding signal lie strictly below -0.5 z-score?
yes

binding signal strictly < -0.5 z-score for this sequence? GGAAATGTCCC
no

is_below(binding signal, -0.5 z-score) for GGGTGCTCCCT ?
no

I'd appreciate it if you could check whether CAGTGACCCCT has binding signal smaller than -0.5 z-score.
yes

###

Listed here are sequences together with their documented binding signal.
Tested System: RELA (p65) subunit of heterodimer;p50 subunit (Homo sapiens;Homo sapiens, UniProt Q04206;P19838 1-307;7-356)
Sequence (Q04206 1-307, chain 1 of 2): as the sequence (Q04206 1-307) above
Sequence (P19838 7-356, chain 2 of 2): as the sequence (P19838 7-356, one chain of several) above
Assay Details: protein binding microarray; high values mean tight binding
Applied Conditions: dsDNA, one strand shown
The reply should be a number in z-score, with the unit left off.

Macromolecule Sequence	Unit Text	binding signal
CAAAGTACCCC	z-score	0.648
CAAGTATTCCT	z-score	-0.839

Switching to the query record.
Data point: AAATTCATCCT ; binding signal = -0.664

###

Tested System: RELA (p65) subunit of heterodimer;p50 subunit (Homo sapiens;Homo sapiens, UniProt Q04206;P19838 1-307;7-356)
Assay Details: protein binding microarray; high values mean tight binding
Applied Conditions: dsDNA, one strand shown
Okay, here is how we bin by binding signal: bottom range (below -0.7 z-score), center range (-0.7 z-score to below 0.5 z-score), top range (0.5 z-score or more)

Macromolecule Sequence	Label
GAAATCCTCCT	center range
CAATGTTCCCT	center range
GAATAGGTCCT	bottom range
CAAAAATCCCC	top range
GAATTAGTCCT	bottom range

Sort CAAATTACCCT into one of the categories.
top range

Determine which band this sequence sits in: GAATTCCTCCC
center range

Determine which band this sequence sits in: GGGAAGCTCCC
top range

Categorize the following entry: CGGTAACTCCC
top range

Band assignment needed for AAATTGGCCCC please.
center range

Please classify: GAGATATCCCC
top range

Given CAAGGTACCCT , name the class its binding signal places it in.
center range

Sort into band: CAAATCTCCCT
top range

Just checking, what class would you give AGGTTCATCCC here?
center range

Into which category would you place AGATTGGTCCT ?
bottom range

# bin lookup: classify AAGGGCCCCCT by its binding signal
center range

Assign a bin to CAGGTGCTCCT
center range

Lab note: which band did AAAGACGCCCC land in?
center range

Input CAGAGATTCCT ; output its category
bottom range

State the class of the sequence shown: AAAGGGTTCCT
bottom range

Record GGATAGTCCCT — which class?
top range

Any idea which band CAAGACGCCCT is in?
bottom range

State the band of AAGTTCACCCC
center range

Band of GGGGACACCCC ?
top range

Which class holds CAGAGCACCCT ?
center range

Would you mind sorting CAATGACTCCT into the appropriate category?
bottom range

###

Tested System: RELB subunit;p52 subunit (Homo sapiens;Homo sapiens, UniProt Q01201;Q00653 120-401;4-332)
Sequence 1: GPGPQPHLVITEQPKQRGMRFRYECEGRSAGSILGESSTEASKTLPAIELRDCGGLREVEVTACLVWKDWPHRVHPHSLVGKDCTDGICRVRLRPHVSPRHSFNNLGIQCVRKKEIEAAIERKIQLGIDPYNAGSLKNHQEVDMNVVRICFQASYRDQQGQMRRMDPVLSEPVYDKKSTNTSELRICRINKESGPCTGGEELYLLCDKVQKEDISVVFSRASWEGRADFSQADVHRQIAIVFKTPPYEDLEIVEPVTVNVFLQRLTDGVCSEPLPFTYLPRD
Sequence 2: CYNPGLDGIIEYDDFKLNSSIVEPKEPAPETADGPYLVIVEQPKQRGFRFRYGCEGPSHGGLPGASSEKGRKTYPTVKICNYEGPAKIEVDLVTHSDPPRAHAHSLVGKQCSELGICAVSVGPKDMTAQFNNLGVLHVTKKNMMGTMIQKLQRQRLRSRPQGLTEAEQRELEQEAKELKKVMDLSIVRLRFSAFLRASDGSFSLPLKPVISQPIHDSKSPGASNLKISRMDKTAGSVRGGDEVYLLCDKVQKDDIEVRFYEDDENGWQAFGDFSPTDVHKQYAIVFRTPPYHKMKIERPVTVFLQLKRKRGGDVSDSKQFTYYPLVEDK
Assay Details: protein binding microarray; high values mean tight binding
Applied Conditions: dsDNA, one strand shown
Measured binding signal values are reported for all entries that follow.

Consider the reported binding signal for these sequences:
Macromolecule Sequence	Value Observed
AAGATGGCCCT	-0.142 z-score
GAAAGTGCCCC	0.479 z-score
CGAGGGTTCCC	-0.335 z-score
GAGGGAGCCCT	-0.682 z-score
GGGATCGTCCT	-0.614 z-score

Just so you know, measured binding signal for CAGGGAGTCCT came out at -0.323 z-score

Record CGGGTTACCCT , field binding signal: -0.22 z-score

Kindly note the recorded binding signal for AAGGGACCCCC , which is 0.929 z-score

###

Tested System: C-Rel subunit;p52 subunit (Homo sapiens;Homo sapiens, UniProt Q04864;Q00653 1-285;4-332)
Sequence 1: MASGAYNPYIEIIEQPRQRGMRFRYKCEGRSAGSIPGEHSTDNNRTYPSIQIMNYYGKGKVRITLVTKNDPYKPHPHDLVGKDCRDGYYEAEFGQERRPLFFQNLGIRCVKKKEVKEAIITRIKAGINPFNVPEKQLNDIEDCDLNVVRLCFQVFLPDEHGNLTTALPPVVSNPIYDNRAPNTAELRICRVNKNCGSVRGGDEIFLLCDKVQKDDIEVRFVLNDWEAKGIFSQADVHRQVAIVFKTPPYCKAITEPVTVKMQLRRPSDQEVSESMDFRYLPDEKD
Sequence 2: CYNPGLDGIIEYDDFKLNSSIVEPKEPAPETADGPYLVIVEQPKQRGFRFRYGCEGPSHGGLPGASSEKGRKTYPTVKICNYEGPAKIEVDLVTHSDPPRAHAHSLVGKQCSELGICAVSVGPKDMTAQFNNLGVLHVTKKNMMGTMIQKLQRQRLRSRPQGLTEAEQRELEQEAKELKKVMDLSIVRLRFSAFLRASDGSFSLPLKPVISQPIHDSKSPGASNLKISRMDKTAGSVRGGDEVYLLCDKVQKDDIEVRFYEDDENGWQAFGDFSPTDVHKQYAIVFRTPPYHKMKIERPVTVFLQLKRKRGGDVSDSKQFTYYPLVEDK
Assay Details: protein binding microarray; high values mean tight binding
Applied Conditions: dsDNA, one strand shown
Documented binding signal across a set of sequences
Express the result in z-score but write the number alone.

Some solved entries appear below for comparison.
Macromolecule Sequence	binding signal (z-score)
CGATGTGTCCC	0.074
GAGAGGTCCCT	0.0392

Record CAGTAGACCCC . Reported binding signal: -0.439

What the record says about CAGGGATCCCC : binding signal is 1.31

Briefly, binding signal measured for AAAATCTTCCC : 0.488

Recorded binding signal (sequence GAAGGTGCCCT ): -0.907

The sequence listed as CAAAATGCCCT shows binding signal equal to -0.0299

sequence AGGTAATTCCT , binding signal observed: 0.709

The recorded binding signal for entry AGAGTCATCCT equals -1.09

What the record says about CAATGACCCCC : binding signal is -0.0557

Reported binding signal for GAGTACACCCT was -0.376

Please fill in: binding signal reported for CGAGGCATCCC = -0.807

Reported binding signal ( GGGTGGCCCCC ) = 0.833

Documented binding signal of GAAGAAATCCC : 0.641

Noted for AAGTTTCTCCC : its binding signal reads 0.189

According to the records, this sequence CGAGAGCCCCT displays binding signal of 0.379

The reported binding signal of the sequence GAATGATCCCC was 0.409

Entry CAAGAGTCCCC , binding signal reported as 0.77

# binding signal of GAGGATTCCCC = 2.11
